- Assay target: T1, human CD73 protein (ACRO Biosystems, Cat No. CD3-H52H7) (human, UniProt P21589 27-547)
- T1 construct: Bought protein; also called recombinant CD73 protein; recombinant CD73
- T1 sequence: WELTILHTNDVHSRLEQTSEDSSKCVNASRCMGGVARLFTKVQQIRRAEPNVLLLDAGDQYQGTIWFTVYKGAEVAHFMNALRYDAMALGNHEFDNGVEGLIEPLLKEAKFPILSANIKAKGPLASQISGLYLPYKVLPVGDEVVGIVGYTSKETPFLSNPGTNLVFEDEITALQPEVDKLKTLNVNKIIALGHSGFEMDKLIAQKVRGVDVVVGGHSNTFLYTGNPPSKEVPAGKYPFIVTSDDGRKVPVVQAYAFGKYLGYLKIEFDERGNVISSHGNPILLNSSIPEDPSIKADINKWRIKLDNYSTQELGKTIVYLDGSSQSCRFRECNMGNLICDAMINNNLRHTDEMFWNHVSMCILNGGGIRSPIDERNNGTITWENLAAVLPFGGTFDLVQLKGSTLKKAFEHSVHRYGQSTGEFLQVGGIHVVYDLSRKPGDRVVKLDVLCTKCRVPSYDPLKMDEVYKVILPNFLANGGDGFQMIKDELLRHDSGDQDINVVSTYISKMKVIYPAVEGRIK
- Method summary: SPR (Biacore T200), antibody captured on protein A chip, CD73 as analyte, 1:1 model
Entries and their Kd
All answers are understood in nM, so give the number only.

Name the reported Kd value associated with the binder 900698 (antibody, V domains shown, Constant regions are not restated) VH: QVQLVESGGGLVKPGGSLRLSCAASGFTFSKYAMSWIRQAPGKGLEWVAEISSGGGYINYADSVKGRFTISRDNAKNSLYLQMNSLRAEDTAVYYCARAIYYYGSSYNYYAMDYWGQGTTVTVSS VL: DIQMTQSPSSLSASVGDRVTITCRASQDVGTAEAWYQQKPGKAPKLLIYWASTRHTGVPSRFSGSGSGTDFTLTISSLQPEDFATYYCQQYSSYPLTFGQGTKLEIK 3.12

Further cases:
Recorded Kd for 900697 (antibody, V domains shown, Constant regions are not restated) VH: QVQLVESGGGLVKPGGSLRLSCAASGFTFSKYAMSWVRQAPGKGLEWVAEISSGGGYINYADSVTGRFTISRDNAKNSLYLQMNSLRAEDTAVYYCARAIYYYGSSYNYYAMDYWGQGTTVTVSS VL: DIQMTQSPSSLSASVGDRVTITCRASQDVGTAEAWYQQKPGKAPKLLIYWASTLQSGVPSRFSGSGSGTDFTLTISSLQPEDFATYYCQQYSSYPLTFGQGTKLEIK , please? 1.29

Ok, now 900695 (antibody, V domains shown, Constant regions are not restated) VH: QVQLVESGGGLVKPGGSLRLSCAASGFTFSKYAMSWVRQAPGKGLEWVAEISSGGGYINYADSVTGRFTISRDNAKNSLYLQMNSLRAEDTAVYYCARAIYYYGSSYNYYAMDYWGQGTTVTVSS VL: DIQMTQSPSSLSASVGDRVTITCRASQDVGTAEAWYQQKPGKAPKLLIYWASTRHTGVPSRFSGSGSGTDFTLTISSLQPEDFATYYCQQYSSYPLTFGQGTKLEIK 2.04

And for 900694 (antibody, V domains shown, Constant regions are not restated; it was detected with anti-human Fc and captured on protein A) VH: EVQLVESGGGLVKPGGSLRLSCAASGFTFSKYAMSWVRQAPGKGLEWVAEISSGGGYINYPDTVTGRFTISRDNAKNSLYLQMNSLRAEDTAVYYCARAIYYYGSSYNYYAMDYWGQGTTVTVSS VL: DIQMTQSPSSLSASVGDRVTITCRASQDVGTAEAWYQQKPGKAPKLLIYWASTRHTGVPDRFSGSGSGTDFTLTISSLQPEDFATYYCQQYSSYPLTFGQGTKLEIK ? 1.5
